assay: Chemical stability (kinetics of chemical hydrolysis) in buffer solutions
Format: physicochemical
condition.parameters: hydrochloric buffer; buffer pH 1.3, 37 °C; read-out: t1/2, chemical stability (converted)
observed.property: half-life at 9.1 µM (h)
Numeric answer only, unit h assumed.

Given the compound CCCC(CCC)C(=O)OC(CCCN1CCC(O)(c2ccc(Cl)cc2)CC1)c1ccc(F)cc1 (racemic) [(±)-1] , what is its reported half-life at 9.1 µM?
100

* * *

assay: Chemical stability (kinetics of chemical hydrolysis) in buffer solutions
Format: physicochemical
condition.parameters: phosphate buffer; buffer pH 7.4, 37 °C; read-out: t1/2, chemical stability (converted)
observed.property: half-life at 9.1 µM (days)
Numeric answer only, unit days assumed.

Given the compound CCCC(CCC)C(=O)OC(CCCN1CCC(O)(c2ccc(Cl)cc2)CC1)c1ccc(F)cc1 (racemic) [(±)-1] , what is its reported half-life at 9.1 µM?
4.02
